- Target Of Assay: T1, hCD27-EGFP on HEK293 cells (human, UniProt P26842 20-260)
- T1 construct: EGFP fusion expressed on transfected HEK293 cells; also called CD27-EGFP cells; cell surface CD27
- T1 sequence (looked up): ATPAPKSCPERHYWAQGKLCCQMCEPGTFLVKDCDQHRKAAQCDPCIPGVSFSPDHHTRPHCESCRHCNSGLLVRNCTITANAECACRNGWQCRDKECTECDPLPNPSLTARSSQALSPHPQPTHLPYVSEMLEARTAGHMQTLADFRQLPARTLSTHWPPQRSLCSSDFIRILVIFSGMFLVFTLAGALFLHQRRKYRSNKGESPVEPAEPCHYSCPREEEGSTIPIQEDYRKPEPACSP
- Procedure Text: FACS titration on CD27-EGFP HEK293 cells, 8 three-fold dilutions from 20 µg/ml, anti-human Ig-APC secondary, MFI; table drawn under the plot, unit from the x axis; no upper plateau reached
Outcome Measure: LogEC50

Q) What value of LogEC50 has been recorded for this entry: d12996 (antibody, human IgG1, V domains shown, not shown: a dimerising Fc or GST, Humanized m2F11, human IgG1 / kappa) VH: EVHLQESGGGLVKPGGSLRLSCAASGFTFSSYAMSWVRQEPEKNLEWVAIIGDGDTYTYYPDSVKGRFTISRDNSKNRLYLQMNDLKSEDTAMYYCVRTRGGPFDYWGQGTTLTVSS VL: EILLTQSPAFMSATPGEKVTITCSASSSVGSMHWYQQKSGQSPRRLIYDTSKLASGVPDRFSGSGSGTDYTLTISSLEAEDAATYYCQQWSSIPPTFGAGTTLELK
A) 0.562 Log10(ug/ml)
